tested.system: UniProt P29990
measurement.notes: Inhibition of DENV2 NS2B-NS3 serine protease using Boc-GRR-AMC as substrate after 30 mins
value.kind: pIC50
// pIC50 here means minus log10 of the molar concentration (mol/L)

Exam item: Give the measured pIC50 of "COC(=O)c1[nH]c2ccc(Cl)cc2c1C(=O)c1cc(OC)c(O)c(OC)c1" .
Marked response: 5.33

----------
tested.system: UniProt:V5TFZ2
measurement.notes: Inhibition of His-tagged DENV2 NS5 RNA dependent RNA polymerase
Parameters: species or system dengue virus type 2
value.kind: pEC50
API: returns pEC50 as number; meaning -log10 of concentration in mol/L.

Exam item: Dear colleague, I am looking for the recorded pEC50 of the following compound: "CCOC(=O)c1cnn(-c2ccccc2)c1N(S(=O)(=O)c1ccc([N+](=O)[O-])cc1)S(=O)(=O)c1ccc([N+](=O)[O-])cc1"
Marked response: 5.31

----------
System: dengue virus type 2
measurement.notes: Antiviral activity against DENV2 […] infected in African green monkey Vero cells by qRT-PCR analysis
Type: functional, organism-based
value.kind: EC50 (µM)
Enter your answer as a number in µM; do not include the unit.

Exam item: Please give the measured EC50 for this compound: "CC[C@@H]([C@H](C)O)n1ncn(-c2ccc(N3CCN(c4ccc(OC[C@@H]5CO[C@@](Cn6cncn6)(c6ccc(F)cc6F)C5)cc4)CC3)cc2)c1=O"
Marked response: 4.1

----------
Test system: dengue virus type 2
measurement.notes: Antiviral activity against DENV2 Martinique infected in African green monkey Vero E6 cells after 3 to 4 days by RT-PCR analysis
Assay type: functional, organism-based
setup.conditions: Vero C1008
pIC50: −log10 of the molar value.
value.kind: pIC50

Exam item: Tell me the measured pIC50 of "O=C(N[C@@H](Cc1ccc(O)cc1)C(=O)O)c1cc(-c2ccccc2)c(=O)n2c1sc1ccc(OC3CCCCC3)cc12" , please.
Marked response: 4.82 to 5.17

----------
Tested on: dengue virus type 1
measurement.notes: Antiviral activity against DENV1 infected in BHK cells assessed as reduction in viral replication
Assay type: functional, organism-based
pEC50: −log10 of the molar value.
value.kind: pEC50

Exam item: Any idea what pEC50 was measured for "O=C(NO)c1ncc(CS(=O)(=O)c2ccccc2)c(CO)c1O" ?
Marked response: 5.55 to 5.66

----------
Tested on: dengue virus type 1
measurement.notes: Antiviral activity against DENV1 infected in African green monkey Vero cells after 30 mins by immunofluorescence assay
Format: functional, organism-based
setup.conditions: 0.5 h
value.kind: EC50

Exam item: Given "C/C(=N\NC(N)=S)[C@H](Cc1c[nH]c2ccccc12)NC(=O)c1ccccc1" , state its recorded EC50.
Marked response: 30 to 50 µM

----------
tested.system: Nonstructural protein 5 (Dengue virus, UniProt V5TFZ2)
measurement.notes: Inhibition of His-tagged DENV2 NS5 RNA dependent RNA polymerase expressed in baculovirus infected sf9 cells
Design: species or system dengue virus type 2
value.kind: pEC50
# pEC50 is unitless: minus log10 of the molar concentration; print number only

Exam item: Field request: pEC50 | item: "CCOC(=O)c1cnn(-c2ccccc2)c1N(S(=O)(=O)c1ccc([N+](=O)[O-])cc1)S(=O)(=O)c1ccc([N+](=O)[O-])cc1"
Marked response: 7.89

----------
Test system: dengue virus type 2
measurement.notes: Antiviral activity against DENV2 infected in BHK-21 incubated for 2 hrs followed by compound washout and subsequent replating by plaque-forming assay
Assay type: functional, organism-based
setup.conditions: BHK-21, 2 h
value.kind: IC50

Exam item: Sample CCN(CCO)CCCC(C)Nc1ccnc2cc(Cl)ccc12 (stereo unspecified) [HYDROXYCHLOROQUINE] — what was its IC50?
Marked response: 10.1 µM

----------
tested.system: Nonstructural protein 5 (Dengue virus)
measurement.notes: Inhibition of N-terminal His6-tagged DENV3 NS5 RNA dependent RNA polymerase (272 to 900 residues) after 1 hr by fluorescence assay
Design: species or system dengue virus type 3
value.kind: IC50 (nM)
Enter your answer as a number in nM; do not include the unit.

Exam item: What measured IC50 is associated with "O=C(N[C@@H](Cc1ccc(O)cc1)C(=O)O)c1cc(-c2ccccc2)c(=O)n2c1sc1ccc(OC3CCCCC3)cc12" on Nonstructural protein 5 (Dengue virus)?
Marked response: 1500

----------
Tested on: dengue virus type 2
measurement.notes: Virucidal activity against DENV2 infected in human HepG2 cells
Assay type: functional, organism-based
value.kind: EC50 (µM)
Reply numerically in µM, unit not repeated.

Exam item: // lookup EC50 for C=C1CC[C@@H]2[C@](C)(CO)[C@H](O)CC[C@@]2(C)[C@@H]1C/C=C1/C(=O)OC[C@H]1O [ANDROGRAPHOLIDE]
Marked response: 21.3

----------
System: dengue virus type 2
measurement.notes: Antiviral activity against DENV2 after 48 hrs by qRT-PCR analysis
Type: functional, organism-based
value.kind: EC50

Exam item: Field request: EC50 | item: "NCC(=O)Nc1ccc(-n2nc(C(F)(F)F)cc2-c2ccc3c(ccc4ccccc43)c2)cc1"
Marked response: 600 to 800 nM

----------
Test system: dengue virus type 1
measurement.notes: Antiviral activity against DENV1 FGA/89 infected in human Huh7.5 cells after 72 hrs by flow cytometric analysis
Format: functional, organism-based
setup.conditions: FGA/89, Huh7.5, 72 h
pEC50: −log10 of the molar value.
value.kind: pEC50

Exam item: I have this molecule here, "O=C1C[C@@H](c2ccc(O)cc2)Oc2cc(O)cc(O)c21" , and I need its recorded pEC50.
Marked response: 3.75 to 4.45

----------
Test system: dengue virus type 2
measurement.notes: Antiviral activity against DENV2 infected in human Huh-7 cells assessed as reduction in viral infection
Format: functional, organism-based
value.kind: pEC50
Worth noting: pEC50 values are minus log10 of concentrations stated in mol/L.

Exam item: Returns the measured pEC50 for the input compound. Input: "COC(=O)c1[nH]c2ccc(Cl)cc2c1C(=O)c1cc(OC)c(O)c(OC)c1"
Marked response: 5.34

----------
Test system: dengue virus type 2
measurement.notes: Antiviral activity against DENV2
Assay type: functional, organism-based
value.kind: IC50
Units required after the number.

{"compound": "Cc1c(O)cccc1C(=O)N[C@@H](CSc1ccccc1)[C@H](O)CN1C[C@H]2CCCC[C@H]2C[C@H]1C(=O)NC(C)(C)C [NELFINAVIR]", "IC50": "3.5 µM"}
{"compound": "C=C1CC/C=C(\\C)CC[C@@H]2[C@@H]1CC2(C)C [BETA-CARYOPHYLLENE]", "IC50": "22 µM"}

# ---- query compound ----
Exam item: Which IC50 is listed for CC(C)=CCC/C(C)=C/C=O [CITRAL] ?
Marked response: 31 µM

----------
tested.system: Genome polyprotein (dengue virus type 2, UniProt P29990)
measurement.notes: Inhibition of DENV2 NS2B-NS3 serine protease using Bz-Nle-Lys-Arg-Arg-AMC as substrate after 15 mins by fluorescence assay
value.kind: IC50 (µM)
# value in µM; strip the unit string

{"structure": "O=C1c2ccccc2C(=O)N1c1ccc(S(=O)(=O)Nc2cccc3ccccc23)cc1", "IC50, µM": 122}

Exam item: Under Genome polyprotein (dengue virus type 2, UniProt P29990): IC50 value of "CCc1ccc(NS(=O)(=O)c2ccc(N3C(=O)c4ccccc4C3=O)cc2)cc1" ?
Marked response: 48.2

----------
tested.system: UniProt P29990
measurement.notes: Inhibition of His-tagged DENV2 NS2B-NS3 serine protease expressed in baculovirus infected sf9 cells
value.kind: pIC50
Convention used: pIC50 is expressed as -log10 of the molar concentration.

Exam item: Requested read-out: pIC50. Entry: "COC(=O)c1[nH]c2ccc(Cl)cc2c1C(=O)c1cc(OC)c(O)c(OC)c1"
Marked response: 5.17

----------
Tested on: dengue virus type 1
measurement.notes: Antiviral activity against DENV1 FGA/89 infected in human Huh7.5 cells after 72 hrs
Type: functional, organism-based
setup.conditions: FGA/89, Huh7.5, 72 h
pIC50: −log10 of the molar value.
value.kind: pIC50

{"structure": "CCCCCCCCCCCCCCNCCNC(=O)C[C@]1(O)C[C@@H](O)[C@@H](O)[C@H](O)C1", "pIC50": "4.97 to 5.19"}

Query compound follows.
Exam item: I'd like to know its pIC50. The compound in question is "CCCCCCCCCCCCNCCNC(=O)C[C@@]1(O)C[C@@H](O)[C@@H]2OC(C)(C)O[C@@H]2C1"
Marked response: 4.98 to 5.16

----------
tested.system: Genome polyprotein (dengue virus type 2, UniProt P29990)
measurement.notes: Inhibition of DENV2 NS2B-NS3 serine protease expressed using Benzoyl-Nle-Lys-Arg-Arg-AMC as substrate measured preincubated for 3 mins followed by substrate addition by fluorescence assay
pIC50: −log10 of the molar value.
Below, each entry is listed alongside its reported pIC50.

{"structure": "Cc1ccc(C2=NC(=O)/C(=C/c3cc(O)c(O)c(Br)c3)S2)cc1", "pIC50": "5.39 to 5.53"}

Alright, here's another compound for you.
Exam item: So what pIC50 did "Cc1ccc(C(=O)c2cc(O)c(O)c([N+](=O)[O-])c2)cc1" get with Genome polyprotein (dengue virus type 2, UniProt P29990)?
Marked response: 5.94 to 6.19
